- STUDY TARGET: CDK2/Cyclin E1 full length (Homo sapiens (Human), UniProt P24941)
- TEST SUMMARY: CDK2/Cyclin E1 full length mobility shift assay
QUANTITY MEASURED: Ki (nM)
Respond numerically; units are nM and should not be typed.

The measured Ki associated with CCNC(=O)O[C@@H]1CC[C@H](c2cc(NC(=O)Cc3cccc4scnc34)n[nH]2)C1 reads 4.11

The measured Ki associated with CCCNC(=O)O[C@H]1CC[C@@H](c2cc(NC(=O)Cc3ccccn3)n[nH]2)C1 reads 1.73

The measured Ki associated with CNC(=O)O[C@@H]1CC[C@H](c2cc(NC(=O)Cc3ccc(OC)nc3)n[nH]2)C1 reads 2.58

The measured Ki associated with CC(C)NC(=O)O[C@@H]1CC[C@H](c2cc(NC(=O)Cc3cccc4scnc34)n[nH]2)C1 reads 4.6

The measured Ki associated with CC[C@H](C)NC(=O)O[C@@H]1CC[C@H](c2cc(NC(=O)Cc3nnc(C)o3)n[nH]2)C1 reads 1.6

The measured Ki associated with Cc1cc(CC(=O)Nc2cc([C@H]3CC[C@@H](OC(=O)N4CCOC[C@@H]4C)C3)[nH]n2)on1 reads 1.37

The measured Ki associated with Cc1ncc(CC(=O)Nc2cc([C@@H]3CC[C@H](OC(=O)N[C@H]4CC[C@](C)(O)CC4)C3)[nH]n2)s1 reads 1.8

The measured Ki associated with Cc1ncc(CC(=O)Nc2cc([C@H]3CC[C@@H](OC(=O)NC(C)CC(F)(F)F)C3)[nH]n2)s1 (single isomer, unassigned) [Example 80] reads 0.15

The measured Ki associated with CC(CC(F)(F)F)N(C)C(=O)O[C@@H]1CC[C@H](c2cc(NC(=O)Cc3ccno3)n[nH]2)C1 (single isomer, unassigned) [Example 89] reads 0.85

The measured Ki associated with CC[C@H](C)NC(=O)O[C@@H]1CC[C@H](c2cc(NC(=O)Cc3cc(OC)ncc3S(C)(=O)=O)n[nH]2)C1 reads 0.31

The measured Ki associated with COc1ccc(CC(=O)Nc2cc([C@H]3CC[C@@H](OC(=O)N4CCC4(C)C)C3)[nH]n2)cn1 reads 0.1

The measured Ki associated with O=C(Cc1cc(F)cc(F)c1)Nc1cc([C@@H]2CC[C@H](OC(=O)NC[C@@H]3CCCO3)C2)[nH]n1 reads 2.55

The measured Ki associated with COCCn1nccc1C(=O)Nc1cc([C@H]2CC[C@@H](OC(=O)N3CC[C@H]3C)C2)[nH]n1 reads 2.21

The measured Ki associated with CC1(NC(=O)O[C@@H]2CC[C@H](c3cc(NC(=O)CC4COc5ccccc54)n[nH]3)C2)CCOC1 (some centres unmarked) [Example 491] reads 3.87

Taken from patent US11014911B2.
